tested target: AgBem1-D1
test protocol: SPOT peptide array binding signal intensity (averaged, normalized) (arbitrary units (background-subtracted, floor 0; scale differs between SH3 domains)); higher = stronger binding of the SH3 domain to the peptide
recorded metric: SPOT peptide array binding signal intensity
Quick one: just the number, no unit, thanks!

These solved cases illustrate the format of a correct answer.
binder=SSSSSPPPLPTRRDH test_value=2
binder=NLDRSKISLPDFDDE test_value=5.5
binder=RLSRLLLSLPPESFT test_value=356
binder=KRKRFNLLLPKPYLT test_value=136
binder=ALFRLSFFFPLDPAY test_value=487

Challenge: Look up SPOT peptide array binding signal intensity: ITHRLRISIPGITGR
Response given: 314
